# Test system: E. faecalis (ATCC 29212)
# experimental-protocol: Antibacterial susceptibility testing (MIC, broth microdilution or agar dilution), E. faecalis
# Assay type: cell-based
# assay-context: Enterococcus faecalis, ATCC29212; read-out: E. faecalis (ATCC 29212) minimal inhibitory concentration (MIC)
Quick reference for MIC among some molecules

For orientation, consider the following solved cases.
{"molecule": "CCNC(=O)Nc1cc(Nc2cc(F)cc(F)c2)c(C(=O)Nc2ccc(CCC(=O)O)cc2)cn1 [Compound 235]", "test-system": "E. faecalis (ATCC 29212)", "MIC": "≤ 1 µg/mL"}
{"molecule": "CCNC(=O)Nc1cc(Nc2ccc(F)c(C)c2)c(C(=O)Nc2ccc(CCC(=O)O)cc2)cn1 [Compound 223]", "test-system": "E. faecalis (ATCC 29212)", "MIC": "≤ 1 µg/mL"}

Query: MIC; subject: CCNC(=O)Nc1cc(Nc2ccccc2)c(C(=O)NCc2cccnc2)cn1 [Compound 28]
≤ 1 µg/mL

Query: MIC; subject: CCNC(=O)Nc1cc(Nc2ccccc2)c(C(=O)Nc2ccc(NC(C)=O)nc2)cn1 [Compound 24]
≤ 1 µg/mL

Query: MIC; subject: CCNC(=O)Nc1cc(Nc2cccc(C#N)c2)c(C(=O)Nc2ccc(CC(C)(C)C(=O)O)cc2)cn1 [Compound 199]
≤ 1 µg/mL

Query: MIC; subject: CCNC(=O)Nc1cc(Nc2cc(F)cc(F)c2)c(C(=O)Nc2ccc(CCC(=O)OCC)cc2)cn1 [Compound 234]
≤ 1 µg/mL

Query: MIC; subject: CCNC(=O)Nc1cc(Nc2ccccc2)c(C(=O)Nc2cccnc2)cn1 [Compound 20]
≤ 1 µg/mL

Query: MIC; subject: CCNC(=O)Nc1cc(Nc2ccccc2)c(C(=O)Nc2ccc(-n3cncn3)nc2)cn1 [Compound 27]
≤ 1 µg/mL

Query: MIC; subject: CCNC(=O)Nc1cc(NCc2cccnc2)c(C(=O)Nc2ccccc2)cn1 [Compound 25]
2 µg/mL

Query: MIC; subject: CCNC(=O)Nc1cc(Nc2ccccc2)c(C(=O)Nc2ccc(N3CCOCC3)nc2)cn1 [Compound 23]
≤ 1 µg/mL

Query: MIC; subject: CCNC(=O)Nc1cc(Nc2cncc(F)c2)c(C(=O)Nc2ccc(CCC(=O)O)cc2)cn1 [Compound 236]
≤ 1 µg/mL

Query: MIC; subject: CCNC(=O)Nc1cc(Nc2cc(F)c(F)c(F)c2)c(C(=O)Nc2ccc(CCC(=O)O)cc2)cn1 [Compound 189]
≤ 1 µg/mL

Query: MIC; subject: CCNC(=O)Nc1cc(Nc2ccc(C(=O)OC)cc2)c(C(=O)Nc2ccc(CC(C)(C)C(=O)O)cc2)cn1 [Compound 196]
≤ 1 µg/mL
